Listed here are compounds together with their documented TGI.
test system: UACC-257 melanoma; assay: NCI tumour cell line growth inhibition, 48 h
All answers are understood in µM, so give the number only.

Quick check: TGI of C=C(C)C1CC2=C(O1)C(=O)c1cccc(O)c1C2=O (stereo not given) ?
1.01

Again, but for Fc1cc2nc3n(c2cc1F)C(c1c(Cl)cccc1Cl)SC3 (stereo not given)
27

----------
Listed here are molecules together with their documented TGI.
system: HCT-116 colon; test: NCI tumour cell line growth inhibition, 48 h

Consider the worked cases shown below.
MOLECULE: CC(C)c1cc(C(=O)[O-])c(O)c(C(C)C)c1.CC(C)c1cc(C(=O)[O-])c(O)c(C(C)C)c1.CC(C)c1cc(C(=O)[O-])c(O)c(C(C)C)c1.CC(C)c1cc(C(=O)[O-])c(O)c(C(C)C)c1.CC(C)c1cc(C(=O)[O-])c(O)c(C(C)C)c1.CC(C)c1cc(C(=O)[O-])c(O)c(C(C)C)c1.[Cu+2].[Mn+2].[Mn+2]
ASSAY_READOUT: TGI
RESULT: 37.8 µM
--
MOLECULE: NC(Cc1ccc(O)cn1)C(=O)O (stereo not given)
ASSAY_READOUT: TGI
RESULT: > 100 µM
--
MOLECULE: COc1cc2c(cc1OC)-c1ncc3cc(OC)c(OC)cc3c1C2
ASSAY_READOUT: TGI
RESULT: > 50 µM
--
MOLECULE: NS(=O)(=O)c1nnc(NC(=O)/C=C/C(=O)O)s1
ASSAY_READOUT: TGI
RESULT: > 100 µM
--
MOLECULE: CNC(=O)OCC1=C(COC(=O)NC)C(C)N(c2ccccc2)C1 (stereo not given)
ASSAY_READOUT: TGI
RESULT: > 100 µM
--
MOLECULE: COc1cc2c(cc1OC)-c1ncc3cc(OC)c(OC)c(OC)c3c1C2
ASSAY_READOUT: TGI
RESULT: > 100 µM

Quick check: TGI of Cc1ccc2c(c1)-c1oc(=O)c(-c3cc4ccccc4oc3=O)cc1C(O)O2 (stereo not given) ?
33 µM

Again, but for OCCCCCNc1ccnc2cc(Cl)ccc12
> 100 µM

Again, but for CC1(C)CN=C(Nc2ccc(F)c(Cl)c2)S1
> 100 µM

Again, but for C/C=C(\C)C(=O)N1c2ccccc2CC1c1c(C)[nH]c2ccccc12 (stereo not given)
> 100 µM

Again, but for Nc1nc(Cc2ccccc2)nc(Cc2ccccc2)c1-c1ccccc1
46 µM

Again, but for CC(CCC(=O)O)c1ccc(Br)cc1 (stereo not given)
> 100 µM

Again, but for N.N.NCCCCCN.O=C([O-])CC(=O)[O-].O=C([O-])CC(=O)[O-].[Pt+4].[Pt+4]
> 100 µM

Again, but for CN1CCN(Cc2ccc(NC(=O)c3cccc(C#Cc4c(N)ncc5ccc(F)cc45)c3)cc2C(F)(F)F)CC1
1.61 µM

Again, but for N#Cc1c2ccc([N+](=O)[O-])cc2c(=O)n2c1sc1ccccc12
38.8 µM
